Measurement label: logP

A selection of reference data follows.
BrC1C2CC3C(C2)C13 (stereo unspecified) = 3.11
OCC1CC2CCC1C2 (stereo unspecified) = 1.99
OC(C1CC1)C1CC1 = 1.07
O=C1C2CC3C(C2)C13 = 0.81
C1=CC2CCC1C2 = 3.24
OC1C2CCC(C2)C1O (stereo unspecified) = 0.4
ClC1CC2CCC1C2 (stereo unspecified) = 3.35
OC1CC2CCC1C2O (stereo unspecified) = 0.4
C1C2C3C2C2C1C32 (stereo unspecified) = 2.9
BrC1CC2CCC1C2 (stereo unspecified) = 3.54

a: C1CC2CC1C1OC21 (stereo unspecified)
b: OC1C2CC3C1C3C2O (stereo unspecified)
c: C1CC2CCC1C2
d: OC1CC2C=CC1C2 (stereo unspecified)
Ascending by logP, please: list the molecules accordingly. Reply with the labels, ordered as the question asks. b, d, a, c
(b: -0.42, d: 0.99, a: 1.58, c: 3.78)

a: OC1CC2CCC1C2 (stereo unspecified)
b: C1=CC2C=CC1C2
Could you tell me which of these two has the smaller logP figure? First: a Second: b // return label of chosen record a
(a: 1.45, b: 2.67)
